Target: UniProtKB Q96RJ0
Sequence (Q96RJ0 whole entry): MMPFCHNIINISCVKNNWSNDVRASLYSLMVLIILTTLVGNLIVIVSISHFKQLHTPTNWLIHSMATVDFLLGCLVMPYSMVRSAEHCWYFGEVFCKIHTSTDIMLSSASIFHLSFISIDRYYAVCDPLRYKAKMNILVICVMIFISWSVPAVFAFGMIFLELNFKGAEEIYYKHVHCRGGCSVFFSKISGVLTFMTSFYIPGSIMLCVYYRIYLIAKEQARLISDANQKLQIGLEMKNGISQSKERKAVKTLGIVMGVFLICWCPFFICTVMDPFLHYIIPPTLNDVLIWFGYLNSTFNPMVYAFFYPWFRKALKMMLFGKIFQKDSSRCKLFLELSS
Note to self: Ki under 500 nM means yes (1), ties and anything higher get no (0).

Input line: # strict comparison: is reported Ki < 500 nM? input = `OCCc1ccccc1`
Output line: yes (1)

Input line: Report whether reported Ki is lower than 500 nM (strictly) for NCCc1c[nH]cn1 [[3H]histamine]
Output line: no (0)

Input line: Decide: Ki of NCC(O)c1ccc(O)c(O)c1 (stereo not drawn) [Noradrenaline,(+)] strictly below 500 nM?
Output line: no (0)

Input line: Item `NCCc1c[nH]c2ccccc12` : Ki beneath 500 nM, strictly?
Output line: no (0)

Input line: Does `NCCc1ccc(O)cc1` have Ki strictly under 500 nM?
Output line: yes (1)
